Source: patent US12503473B2

Target: MCT4 (Homo sapiens, UniProt O15427)
Sequence (O15427 1-465): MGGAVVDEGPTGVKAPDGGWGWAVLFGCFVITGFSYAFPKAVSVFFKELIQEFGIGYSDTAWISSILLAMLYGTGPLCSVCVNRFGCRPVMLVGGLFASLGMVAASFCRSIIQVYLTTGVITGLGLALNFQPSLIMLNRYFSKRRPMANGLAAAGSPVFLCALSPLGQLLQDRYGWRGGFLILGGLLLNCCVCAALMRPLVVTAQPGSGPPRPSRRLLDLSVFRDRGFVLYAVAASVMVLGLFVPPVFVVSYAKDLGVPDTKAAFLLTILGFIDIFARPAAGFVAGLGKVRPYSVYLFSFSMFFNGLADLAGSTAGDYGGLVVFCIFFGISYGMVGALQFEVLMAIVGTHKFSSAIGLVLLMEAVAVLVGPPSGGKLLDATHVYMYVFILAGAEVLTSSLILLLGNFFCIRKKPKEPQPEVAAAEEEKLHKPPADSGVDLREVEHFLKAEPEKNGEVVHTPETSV
Test: cell-based
recorded_metric: IC50 (µM)

| compound | target_system | measurement_unit | IC50 |
| --- | --- | --- | --- |
| Cc1nc2nc(C)c(C[C@@H]3CCN(c4cnc(-c5ccc(CN6CCN(C)CC6)nc5)cn4)C3)c(C)n2n1 | MCT4 (Homo sapiens, UniProt O15427) | µM | 0.126 |
| Cc1nc2nc(C)c(O[C@@H]3CCN(c4cnc(-c5ccc(CN6CCN(C)CC6)cc5)cn4)C3)c(C)n2n1 | MCT4 (Homo sapiens, UniProt O15427) | µM | 0.0158 |

[I] Cc1nc2nc(C)c(C[C@@H]3CCN(c4ccc(-c5ccc(CN6CCOCC6)nn5)nc4)C3)c(C)n2n1
[II] Cc1nc2nc(C)c(C[C@@H]3CCN(c4cnc(-c5ccc(CN6CCOCC6)nc5)nc4)C3)c(C)n2n1
// select label with min value of measured IC50 from [ I , II ] Pick one; state its label.
II

* * *

target: UniProtKB O15427; experiment: cell-based
recorded_metric: IC50 (µM)

Consider the worked cases shown below.
| compound | recorded_metric | obs_value |
| --- | --- | --- |
| Cc1nc2nc(C)c(O[C@@H]3CCN(c4ccc(-c5ccc(CN6C7CCC6CN(C)C7)nn5)cc4)C3)c(C)n2n1 [Example 66] | IC50 | 0.0501 |
| Cc1nc2nc(C)c(O[C@@H]3CCN(c4ccc(-c5ccc(CN6CCN7CCC[C@@H]7C6)nn5)cc4)C3)c(C)n2n1 [Example 67] | IC50 | 0.0631 |

[P] Cc1nc2nc(C)c(C[C@@H]3CCN(c4cnc(-c5ccc(CN6CCN(C)C[C@@H]6C)cc5)nc4)C3)c(C)n2n1 [Example 10]
[Q] Cc1nc2nc(C)c(C[C@@H]3CCN(c4cnc(-c5ccc(CN6CCOCC6)nc5)cn4)C3)c(C)n2n1 [Example 49]
Which entry has a larger number for IC50, P or Q ? Pick one; state its label.
P

* * *

Target: UniProtKB O15427
Sequence (O15427 1-465): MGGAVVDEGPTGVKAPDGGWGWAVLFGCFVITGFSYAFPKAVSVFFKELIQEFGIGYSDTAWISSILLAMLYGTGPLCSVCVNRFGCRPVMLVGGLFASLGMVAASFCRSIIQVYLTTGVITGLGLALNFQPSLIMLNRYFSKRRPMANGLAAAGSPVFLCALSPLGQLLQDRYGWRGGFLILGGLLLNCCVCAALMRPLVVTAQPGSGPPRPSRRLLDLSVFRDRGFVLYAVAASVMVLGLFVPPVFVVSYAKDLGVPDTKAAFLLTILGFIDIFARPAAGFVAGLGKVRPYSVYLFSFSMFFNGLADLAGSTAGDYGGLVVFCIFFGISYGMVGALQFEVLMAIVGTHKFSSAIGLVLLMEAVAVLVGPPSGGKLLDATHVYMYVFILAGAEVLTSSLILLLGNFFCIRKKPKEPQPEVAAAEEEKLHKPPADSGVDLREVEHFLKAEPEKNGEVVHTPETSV
Test: Assay (a): lactate efflux from SK-Br-3 cells (lactate in media, 4 h)
Type: cell-based
Parameters: a natively glycolytic human breast adenocarcinoma line predominantly expressing MCT4; host or cells: SK-Br-3
Details: mean of at least three repeats (Example 32, marked *, two repeats), read-out: MCT4 lactate efflux pIC50 (SKBR3) (converted)
recorded_metric: IC50 (nM)

| compound | target_system | measurement_unit | IC50 |
| --- | --- | --- | --- |
| Cc1nc2nc(C)c(C[C@@H]3CCN(c4cnc(-c5ccc(CN6CCN(C)CC6)cc5)nc4)C3)c(C)n2n1 | UniProtKB O15427 | nM | 0.501 |
| Cc1nc2nc(C)c(C[C@@H]3CCN(c4cnc(-c5ccc(CN6CCOCC6)nc5)nc4)C3)c(C)n2n1 | UniProtKB O15427 | nM | 0.316 |
| Cc1nc2nc(C)c(C[C@@H]3CCN(c4cnc(-c5ccc(CN6CCN(C)CC6)nc5)cn4)C3)c(C)n2n1 | UniProtKB O15427 | nM | 3.98 |
| Cc1nc2nc(C)c(C[C@@H]3CCN(c4ccc(-c5cnc(CN6CCN(C)CC6)cn5)cc4)C3)c(C)n2n1 | UniProtKB O15427 | nM | 1.26 |

[1] Cc1nc2nc(C)c(C[C@@H]3CCN(c4cnc(-c5ccc(CN6CCN(CC(=O)N(C)C)CC6)cc5)nc4)C3)c(C)n2n1
[2] Cc1nc2nc(C)c(O[C@@H]3CCN(c4ccc(-c5cnc(CN6CCOCC6)cn5)cc4)C3)c(C)n2n1
// select label with min value of measured IC50 from [ 1 , 2 ] Pick one; state its label.
2

[a] Cc1nc2nc(C)c(O[C@@H]3CCN(c4cnc(-c5ccc([C@@H](C)N6CCOCC6)cc5)cn4)C3)c(C)n2n1 (single isomer, unassigned)
[b] CC(=O)N1CCN(Cc2ccc(-c3cnc(N4CC[C@@H](Cc5c(C)nc6nc(C)nn6c5C)C4)cn3)cc2)CC1
Which entry has a larger number for IC50, a or b ? Pick one; state its label.
a

[1] Cc1nc2nc(C)c(O[C@@H]3CCN(c4ccc(-c5ccc(CN6CCOCC6)nc5)cn4)C3)c(C)n2n1
[2] Cc1nc2nc(C)c(O[C@@H]3CCN(c4ccc(-c5ccc(CN6CCCCC6)nn5)cc4)C3)c(C)n2n1
[3] Cc1nc2nc(C)c(C[C@@H]3CCN(c4cnc(-c5ccc(CN6CCN(CC(=O)N(C)C)CC6)cc5)cn4)C3)c(C)n2n1
Hey, can you sort those compounds up there by IC50, smallest first? Use the labels to give the ranking in the order requested.
3, 2, 1
(3: 0.631 nM, 2: 1.58 nM, 1: 3.16 nM)
